Each entry below carries its recorded K0.5-mut/K0.5-wt.
TARGET_ENTITY: antithrombin III (plasma purified human AT-III), used as the AT-III/unfractionated heparin complex
TEST_METHOD_NOTES: K0.5 ratio to Catalyst Biosciences WT FIXa, AT-III/UFH inhibition assay
Give the value in fold but do not write fold after it.

Consider the protein FIXa-D203N/F205T/K228N (protein) chain 1: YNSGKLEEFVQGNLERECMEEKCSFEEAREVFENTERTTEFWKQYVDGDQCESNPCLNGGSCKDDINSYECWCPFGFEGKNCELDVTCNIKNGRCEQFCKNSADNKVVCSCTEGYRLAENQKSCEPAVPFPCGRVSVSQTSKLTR chain 2: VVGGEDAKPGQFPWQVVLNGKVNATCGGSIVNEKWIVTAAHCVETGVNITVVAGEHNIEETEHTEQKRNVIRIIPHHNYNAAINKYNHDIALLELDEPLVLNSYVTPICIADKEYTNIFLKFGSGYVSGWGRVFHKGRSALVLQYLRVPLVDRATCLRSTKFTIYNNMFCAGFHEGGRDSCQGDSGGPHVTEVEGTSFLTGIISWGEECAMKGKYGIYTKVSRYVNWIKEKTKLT and give its recorded K0.5-mut/K0.5-wt.
42.5

Supply measured K0.5-mut/K0.5-wt of FIXa-K228N/R318Y/E410N (protein) chain 1: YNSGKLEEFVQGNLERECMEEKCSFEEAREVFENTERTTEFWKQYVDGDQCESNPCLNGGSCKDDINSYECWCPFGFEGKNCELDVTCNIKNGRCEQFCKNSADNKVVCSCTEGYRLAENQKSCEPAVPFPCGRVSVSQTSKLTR chain 2: VVGGEDAKPGQFPWQVVLNGKVDAFCGGSIVNEKWIVTAAHCVETGVNITVVAGEHNIEETEHTEQKRNVIRIIPHHNYNAAINKYNHDIALLELDEPLVLNSYVTPICIADKEYTNIFLKFGSGYVSGWGRVFHKGYSALVLQYLRVPLVDRATCLRSTKFTIYNNMFCAGFHEGGRDSCQGDSGGPHVTEVEGTSFLTGIISWGEECAMKGKYGIYTKVSRYVNWIKNKTKLT in your reply.
24.6

Using known records, supply K0.5-mut/K0.5-wt for FIXa-R318Y/R338E/E410N (protein) chain 1: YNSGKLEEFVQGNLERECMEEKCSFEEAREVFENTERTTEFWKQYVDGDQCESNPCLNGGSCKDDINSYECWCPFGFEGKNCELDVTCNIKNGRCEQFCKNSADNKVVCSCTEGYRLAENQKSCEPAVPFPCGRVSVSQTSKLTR chain 2: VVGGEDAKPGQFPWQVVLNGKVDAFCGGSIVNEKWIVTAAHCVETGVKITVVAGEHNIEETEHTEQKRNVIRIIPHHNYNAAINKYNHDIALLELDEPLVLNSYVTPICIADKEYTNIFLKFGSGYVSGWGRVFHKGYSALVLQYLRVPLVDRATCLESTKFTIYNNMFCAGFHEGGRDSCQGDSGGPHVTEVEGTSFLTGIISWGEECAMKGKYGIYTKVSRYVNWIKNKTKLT
179

Return value of K0.5-mut/K0.5-wt for input FIXa-D203N/F205T/R318Y (protein) chain 1: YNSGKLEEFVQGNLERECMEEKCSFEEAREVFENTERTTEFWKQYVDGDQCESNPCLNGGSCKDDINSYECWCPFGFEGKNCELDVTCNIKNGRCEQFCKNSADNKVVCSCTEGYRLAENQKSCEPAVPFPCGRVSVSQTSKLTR chain 2: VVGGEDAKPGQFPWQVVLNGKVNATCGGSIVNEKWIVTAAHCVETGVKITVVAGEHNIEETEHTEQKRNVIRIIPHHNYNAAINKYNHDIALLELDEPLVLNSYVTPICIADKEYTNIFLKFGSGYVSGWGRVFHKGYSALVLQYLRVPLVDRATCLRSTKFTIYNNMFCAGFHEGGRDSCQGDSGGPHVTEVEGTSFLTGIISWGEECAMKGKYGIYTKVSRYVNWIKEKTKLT , no commentary.
374
